biological target: Hexose transporter 1 (Plasmodium falciparum); assay: ST_JUDE_LEISH: Cytotoxicity at 2uM final concentration against transgenic Leishmania Mexicana promastigotes LmPfHT that are glucose transport deficient and complemented with the Plasmodium falciparum hexose transporter. Activity is measured by DNA content using SYBR green in vitro; assay type: functional
reportedEndpoint: inhibition (%)

[
  {
    "compound": "CCC(C)CN1CCN(c2cc(NC(=O)c3cccs3)ccn2)C(C)C1 (stereo not given)",
    "measureUnit": "%",
    "observedValue": 2.3
  },
  {
    "compound": "Cc1cc(-c2cccc(CNC3CCN(C)CC3)c2)ccc1S(=O)(=O)NCCc1ccccn1",
    "measureUnit": "%",
    "observedValue": -0.31
  },
  {
    "compound": "CCCN1CCC(c2c[nH]c3ccc(NC(=O)Nc4cccc(Cl)c4Cl)cc23)CC1",
    "measureUnit": "%",
    "observedValue": 2.45
  },
  {
    "compound": "O=C1OC2(CCN(Cc3cccc(-c4ncc[nH]4)c3)CC2)CN1CCNCc1ccccc1",
    "measureUnit": "%",
    "observedValue": 1.4
  },
  {
    "compound": "Oc1ccc(CCCNc2nc(NCc3ccccc3-c3ccccc3)nc(N3CCNCC3)n2)cc1",
    "measureUnit": "%",
    "observedValue": -2.76
  },
  {
    "compound": "CC(C)NCc1ccc(-c2ccc(NC(=O)c3ccc(C#N)cc3)cc2)cc1",
    "measureUnit": "%",
    "observedValue": 3.73
  },
  {
    "compound": "Cc1cc(NC(=O)[C@H](CC2CCCCC2)Nc2ccc(C#N)c3ccccc23)ccc1F",
    "measureUnit": "%",
    "observedValue": 7.28
  },
  {
    "compound": "Cn1cnc(CCNC(=O)c2cccc(-c3cccc(-c4nc5cc(C(F)(F)F)ccc5[nH]4)c3)c2)c1",
    "measureUnit": "%",
    "observedValue": 1
  },
  {
    "compound": "Cc1cccc2nc(-c3cccc(-c4ccc(C(=O)NCCc5ccc(O)c(=O)[nH]5)cc4)c3)[nH]c12",
    "measureUnit": "%",
    "observedValue": 1.89
  },
  {
    "compound": "COc1ccc2nccc([C@@H](O)CN3CCC(NC(=O)Cn4nc(-c5ccc(C(F)(F)F)cc5)ccc4=O)CC3)c2c1",
    "measureUnit": "%",
    "observedValue": 3.03
  },
  {
    "compound": "CCOc1cc(Cc2cnc(N)nc2N)cc(OCC)c1OCC",
    "measureUnit": "%",
    "observedValue": 1.8
  },
  {
    "compound": "Brc1ccsc1-c1nc(NCCC(c2ccccc2)c2ccccc2)no1",
    "measureUnit": "%",
    "observedValue": 0.55
  },
  {
    "compound": "c1cc(CN2CCN(CCN3CCOCC3)CC2)cc(-c2cccc(-c3nc4ccccc4[nH]3)c2)c1",
    "measureUnit": "%",
    "observedValue": -0.24
  },
  {
    "compound": "CCC(c1ccccc1)c1nn2c(-c3cccs3)nnc2s1 (stereo not given)",
    "measureUnit": "%",
    "observedValue": 3.46
  },
  {
    "compound": "Cc1ccc2[nH]c(C)cc(=NN=CC=Cc3ccccc3)c2c1",
    "measureUnit": "%",
    "observedValue": 1.15
  },
  {
    "compound": "CCN1CCC(N(Cc2ccc(-c3ccc(C(F)(F)F)cc3)cc2)C(=O)Cn2c(CCc3cccc(F)c3F)cc(=O)c3ccccc32)CC1",
    "measureUnit": "%",
    "observedValue": -0.01
  },
  {
    "compound": "CCCCc1ccc2[nH]c(NC(=O)OC)nc2c1",
    "measureUnit": "%",
    "observedValue": 7.79
  },
  {
    "compound": "O=C(CSc1nccn1C1CCCCC1)Nc1cc(C(F)(F)F)ccc1Cl",
    "measureUnit": "%",
    "observedValue": 9.47
  },
  {
    "compound": "COC(=O)c1sc(-c2ccc(Cl)cc2)cc1N(CCCN1CCC(N2CCCCC2)CC1)S(=O)(=O)c1ccc(C)cc1",
    "measureUnit": "%",
    "observedValue": 11.2
  },
  {
    "compound": "COc1ccc(-c2nc(NC(=O)Cc3ccc4c(c3)OCCO4)sc2C)cc1",
    "measureUnit": "%",
    "observedValue": 4.52
  }
]
